Assay: gradient 5% acetonitrile 3 min, to 50% in 2 min, to 85% in 15 min, held 3 min, 100 µL/min
Details: column: Zorbax Extend-C18 2.1 x 50 mm; eluents: water / acetonitrile, 0.1% formic acid
observationType: RP-LC retention time (s)

Known RP-LC retention time results, listed for orientation:
- molecule: "Cc1ccc(NC(=O)Nc2ccccc2C(N)=O)cc1"
  RP-LC retention time [s]: 815
- molecule: "COc1ccc(-c2cc(C(=O)Nc3ccc(Cl)cc3)nn2C2CCS(=O)(=O)C2)cc1 (stereo unspecified)"
  RP-LC retention time [s]: 1020
- molecule: "COc1cccc(CNS(=O)(=O)c2cc(-c3cc(C(F)(F)F)on3)sc2C)c1"
  RP-LC retention time [s]: 1120
- molecule: "O=C(Nc1nc(-c2ccc(F)cc2)cs1)C1CC1"
  RP-LC retention time [s]: 884

I. CN1C(=O)Cc2cc(C(=O)N3CCCCC3)ccc21
II. COc1ccc(N2CC(c3nc(-c4ccc(C(F)(F)F)cc4)no3)CC2=O)c(OC)c1 (stereo unspecified)
Ask | Select one. Lower RP-LC retention time: I or II Please respond with the label that marks your chosen entry.
Reply | I

---

Test: gradient 5% acetonitrile 3 min, to 50% in 2 min, to 85% in 15 min, held 3 min, 100 µL/min
Conditions: column: Zorbax Extend-C18 2.1 x 50 mm; eluents: water / acetonitrile, 0.1% formic acid
observationType: RP-LC retention time (s)

Known RP-LC retention time results, listed for orientation:
- compound: "CCc1nc(-c2csc(S(=O)(=O)N3CCCC(C(=O)Nc4ccccc4OC)C3)c2)no1 (configuration not stated)"
  observationType: "RP-LC retention time"
  quantityUnit: "s"
  quantitativeResult: 1060
- compound: "CC1CCCCN1C(=O)Cn1c(CCO)nc2ccccc21 (configuration not stated)"
  observationType: "RP-LC retention time"
  quantityUnit: "s"
  quantitativeResult: 583

A. Cc1ccc(-c2noc(C3CCCN3C(=O)NC3CCCCC3)n2)cc1 (configuration not stated)
B. O=C(NCCc1ccccc1)C(=O)NCC(c1ccc2c(c1)OCO2)N1CCOCC1 (configuration not stated)
Ask | Endpoint returns the identifier whose RP-LC retention time is numerically larger, either A or B . Please respond with the label that marks your chosen entry.
Reply | A
(A: 1020 s, B: 672 s)

P. O=C(O)c1cccc(Nc2c(-c3cccc(Cl)c3)nc3cnccn23)c1
Q. CCCCn1c(=O)c2ccccc2n(Cc2nc(-c3cccc(OCC)c3)no2)c1=O
Ask | Select one. Lower RP-LC retention time: P or Q Please respond with the label that marks your chosen entry.
Reply | P
(P: 737 s, Q: 1150 s)

P. CCOc1ccc(NC(=O)N2CCc3cn(CCOC)c4cccc(c34)C2)cc1
Q. Cc1ccccc1CNC(=O)c1ccc2c(c1)ncn2CCN1CCCC1
Ask | Endpoint returns the identifier whose RP-LC retention time is numerically larger, either P or Q . Please respond with the label that marks your chosen entry.
Reply | P

I. CN1C(=O)c2cccnc2Sc2cc(NC(=O)c3cccs3)ccc21
II. CSc1cnc(Nc2nc(-c3ccc(Br)cc3)cs2)nc1
Ask | Endpoint returns the identifier whose RP-LC retention time is numerically larger, either I or II . Please respond with the label that marks your chosen entry.
Reply | II
(II: 1190 s, I: 745 s)

---

Assay: gradient 5% acetonitrile 3 min, to 50% in 2 min, to 85% in 15 min, held 3 min, 100 µL/min
Details: column: Zorbax Extend-C18 2.1 x 50 mm; eluents: water / acetonitrile, 0.1% formic acid
observationType: RP-LC retention time (s)

- compound: "Cn1cc(-c2nnc(SCC(=O)N3CCc4ccccc43)n2C)c(-c2ccccc2)n1"
  RP-LC retention time [s]: 766
- compound: "Cc1ccccc1NC(=O)c1nnc(CSCC(=O)N2CCN(c3ccccn3)CC2)s1"
  RP-LC retention time [s]: 637
- compound: "O=C(CCCc1c[nH]c2ccccc12)NC1CCN(c2ccc(=O)[nH]n2)C1 (stereo not given)"
  RP-LC retention time [s]: 640
- compound: "COc1ccc2[nH]cc(CCNCc3ccc(Br)cc3)c2c1"
  RP-LC retention time [s]: 764
- compound: "Cc1nn(-c2ccc(C(=O)NCc3ccco3)cc2)c2c1C(=O)CC(C)(C)C2"
  RP-LC retention time [s]: 756
- compound: "CCOC(=O)C1=C(CN2CC(C)CC(C)C2)NC(=O)NC1c1ccc(OC)cc1 (stereo not given)"
  RP-LC retention time [s]: 653
- compound: "CCCN1C(=O)c2c(C(=O)NCc3cccc(Cl)c3)ncn2CC1(C)C(=O)NC1CCCC1 (stereo not given)"
  RP-LC retention time [s]: 858
- compound: "Cc1ccc(CNC(=O)C2CCN(S(=O)(=O)c3cc(C(=O)N(C)C)cs3)CC2)o1"
  RP-LC retention time [s]: 708
- compound: "COc1cc(Cl)c(NC(=O)C2CCCN(C(=O)c3cc(-c4ccncc4)n[nH]3)C2)c(OC)c1 (stereo not given)"
  RP-LC retention time [s]: 642
- compound: "O=C(NC1CCCc2ccccc21)c1ccc(-n2nc(N3CCCC3)ccc2=O)cc1 (stereo not given)"
  RP-LC retention time [s]: 920
- compound: "O=C(N[C@H]1C[C@@H]2C[C@H]1N(C(=O)NCc1cccc(F)c1)C2)c1cccs1"
  RP-LC retention time [s]: 765
- compound: "CN1C(=O)C(CC(=O)N2CCCCC2)Sc2ncccc21 (stereo not given)"
  RP-LC retention time [s]: 658
- compound: "COc1ccc(CN(C)Cc2cc(=O)n3cc(C)ccc3n2)cc1"
  RP-LC retention time [s]: 598
- compound: "O=C(Nc1ccc(F)cc1F)Nc1c(-c2ccc(F)cc2)nc2ccccn12"
  RP-LC retention time [s]: 677
- compound: "Cn1cc(C2=CCN(S(=O)(=O)c3ccccc3F)CC2)c2cccnc21"
  RP-LC retention time [s]: 944
- compound: "O=C(NC(c1ccccc1)c1nnc(N2CCCC2)o1)c1ccc(F)c(Cl)c1 (stereo not given)"
  RP-LC retention time [s]: 899
- compound: "CC(C)(C)c1ccc(C(=O)NC2CCN(c3cc(-c4ccc(Cl)cc4)[nH]n3)C2)cc1 (stereo not given)"
  RP-LC retention time [s]: 976
- compound: "CCN1C(=O)C(C)(C(=O)NCc2ccc(F)c(Cl)c2)Oc2cccnc21 (stereo not given)"
  RP-LC retention time [s]: 902
- compound: "CC(=O)Nc1nsc(N2CCC(C(=O)N3CCN(c4cccc(Cl)c4)CC3)CC2)n1"
  RP-LC retention time [s]: 731
- compound: "CCN(CC)CCNC(=O)Cn1c2ccccc2c2cnn(C)c(=O)c21"
  RP-LC retention time [s]: 599
- compound: "CNC(=O)c1cccc(Nc2c(-c3ccccc3)nc3cnccn23)c1"
  RP-LC retention time [s]: 645
- compound: "Cc1nc(NC2=NCN(Cc3cccnc3)CN2)nc2c(C)cccc12"
  RP-LC retention time [s]: 592
- compound: "CC(=O)N1CCCN(C2=NS(=O)(=O)C(c3ccc(C)cc3)=C2C)CC1"
  RP-LC retention time [s]: 699
- compound: "CC1=C(c2ccc(Cl)cc2)S(=O)(=O)N=C1N1CCCN(C(=O)c2ccco2)CC1"
  RP-LC retention time [s]: 823
- compound: "COc1ccc(-c2cc(NS(=O)(=O)c3cnc[nH]3)n(C3CCS(=O)(=O)C3)n2)cc1 (stereo not given)"
  RP-LC retention time [s]: 649
- compound: "CN1C(=O)Cc2cc(S(=O)(=O)NCc3ccc4c(c3)CCN4C(=O)c3ccccc3)ccc21"
  RP-LC retention time [s]: 771
- compound: "NCCc1nc(-c2ccccc2)cs1"
  RP-LC retention time [s]: 550
- compound: "CCS(=O)(=O)Nc1ccc(C2(C(=O)NCc3ccccc3)CCCCC2)cc1"
  RP-LC retention time [s]: 903
- compound: "COC(=O)c1ccccc1NC(=O)Cc1csc(Nc2ccccn2)n1"
  RP-LC retention time [s]: 703
- compound: "O=C(c1noc2c1CCc1sccc1-2)N1CCN(c2ccccn2)CC1"
  RP-LC retention time [s]: 673
- compound: "CCC(C)NC(=O)C1CCCN(c2ccc(-c3ccc(C)c(C)c3)nn2)C1 (stereo not given)"
  RP-LC retention time [s]: 716
- compound: "COc1ccc(OC)c(CNC(=O)COc2nc(C)nc3oc(C)c(C)c23)c1"
  RP-LC retention time [s]: 866
- compound: "CCc1noc(NC(C)=O)c1-c1ccc(OC)c(S(=O)(=O)Nc2cc(OC)ccc2OC)c1"
  RP-LC retention time [s]: 774
- compound: "c1cncc(CN2CCCC(OCc3nc(-c4ccncc4)no3)C2)c1 (stereo not given)"
  RP-LC retention time [s]: 557
- compound: "O=C(c1cnccn1)N1CCC(c2nc(-c3ccccc3)no2)C1 (stereo not given)"
  RP-LC retention time [s]: 758
